TEST_SYSTEM: Carbonic anhydrase 1 (Homo sapiens)
STUDY_CONDITIONS: filed as activator
Description: Binding affinity to human carbonic anhydrase 1 assessed as activation constant by phenol red dye based stopped-flow method
Strictly below 3 µM in KA: true (1). Otherwise: false (0).

These solved cases illustrate the format of a correct answer.
# COMPOUND_SMILES, DISCRETE_LABEL
records = [
    ("COC(=O)[C@H](Cc1c[nH]cn1)NCCCCCNc1c2c(nc3ccccc13)CCCC2", "true (1)"),
    ("N[C@@H](CCCCNC(=O)OCc1ccccc1)C(=O)NCCCCCNc1c2c(nc3ccccc13)CCCC2", "false (0)"),
    ("COC(=O)[C@H](CCCCNC(=O)OCc1ccccc1)NCCCCCNc1c2c(nc3ccccc13)CCCC2", "false (0)"),
    ("N[C@@H](CCCCNC(=O)OCc1ccccc1)C(=O)NCCCCNc1c2c(nc3ccccc13)CCCC2", "false (0)"),
]

Let us examine a further case.
Exercise: Dear colleague, could you confirm whether KA of `NCCc1c[nH]cn1` falls below 3 µM? Thanks.
Solution: true (1)

====

TEST_SYSTEM: UniProt O42275
pIC50: −log10 of the molar value.
Tag: 1.0 if measured pIC50 is not below 8, 0.0 if it is.

# COMPOUND_SMILES, DISCRETE_LABEL
measured = [
    ("CC(C)(C)OC(=O)N[C@@H](Cc1cn(C(=O)OC(C)(C)C)cn1)C(=O)NCCCCNc1c2c(nc3ccccc13)CCCC2", 0.0),
    ("c1ccc2c(NCCCCCCNCCc3c[nH]cn3)c3c(nc2c1)CCCC3", 1.0),
    ("COC(=O)[C@H](Cc1c[nH]cn1)NCCCCCNc1c2c(nc3ccccc13)CCCC2", 0.0),
    ("COC(=O)[C@@H](N)Cc1ccc(OCCCCCNc2c3c(nc4ccccc24)CCCC3)cc1", 0.0),
]

Let us examine a further case.
Exercise: Given `CC(C)(C)OC(=O)N[C@@H](Cc1c[nH]c2ccccc12)C(=O)NCCCNc1c2c(nc3ccccc13)CCCC2` , state whether its pIC50 is at least 8.
Solution: 0.0

====

TEST_SYSTEM: Acetylcholinesterase (Electrophorus electricus, UniProt O42275)
Sequence (O42275 whole entry): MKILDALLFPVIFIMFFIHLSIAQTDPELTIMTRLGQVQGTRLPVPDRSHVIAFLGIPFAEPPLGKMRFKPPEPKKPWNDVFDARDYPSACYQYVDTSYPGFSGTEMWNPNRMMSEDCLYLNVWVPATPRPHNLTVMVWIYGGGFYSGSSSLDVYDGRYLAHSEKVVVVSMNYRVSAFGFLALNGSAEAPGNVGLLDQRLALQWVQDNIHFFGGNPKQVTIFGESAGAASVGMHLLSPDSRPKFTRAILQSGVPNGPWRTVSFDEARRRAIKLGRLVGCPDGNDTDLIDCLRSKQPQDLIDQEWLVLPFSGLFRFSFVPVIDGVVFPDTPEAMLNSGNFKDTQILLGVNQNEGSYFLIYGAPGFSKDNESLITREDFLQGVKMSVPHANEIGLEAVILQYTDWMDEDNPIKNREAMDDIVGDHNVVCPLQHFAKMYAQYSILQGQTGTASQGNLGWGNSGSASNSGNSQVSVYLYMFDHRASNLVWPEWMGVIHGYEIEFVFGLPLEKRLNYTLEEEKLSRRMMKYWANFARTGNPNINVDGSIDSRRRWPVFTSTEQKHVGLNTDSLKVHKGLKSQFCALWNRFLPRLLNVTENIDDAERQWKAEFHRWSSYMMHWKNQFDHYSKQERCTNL
Classes based on IC50: low value = under 0.08 µM, medium value = from 0.08 µM up to 0.2 µM, high value = 0.2 µM and over

These solved cases illustrate the format of a correct answer.
# COMPOUND_SMILES, DISCRETE_LABEL
rows = [
    ("N[C@@H](Cc1ccccc1)C(=O)NCCCCCNc1c2c(nc3ccccc13)CCCC2", "low value"),
    ("N[C@@H](Cc1c[nH]cn1)C(=O)NCCCCNc1c2c(nc3ccccc13)CCCC2", "medium value"),
    ("COC(=O)[C@H](Cc1c[nH]c2ccccc12)NCCCCCNc1c2c(nc3ccccc13)CCCC2", "low value"),
    ("N[C@@H](Cc1ccccc1)C(=O)NCCCNc1c2c(nc3ccccc13)CCCC2", "high value"),
    ("N[C@@H](Cc1c[nH]c2ccccc12)C(=O)NCCCCNc1c2c(nc3ccccc13)CCCC2", "medium value"),
    ("CC(C)(C)OC(=O)N[C@@H](Cc1cn(C(=O)OC(C)(C)C)cn1)C(=O)NCCCCCNc1c2c(nc3ccccc13)CCCC2", "medium value"),
    ("N[C@@H](Cc1ccccc1)C(=O)NCCCCNc1c2c(nc3ccccc13)CCCC2", "high value"),
    ("CC(C)(C)OC(=O)N[C@@H](CCCCNC(=O)OCc1ccccc1)C(=O)NCCCNc1c2c(nc3ccccc13)CCCC2", "high value"),
    ("CC(C)(C)OC(=O)N[C@@H](Cc1c[nH]c2ccccc12)C(=O)NCCCCCCNc1c2c(nc3ccccc13)CCCC2", "low value"),
    ("N[C@@H](Cc1c[nH]c2ccccc12)C(=O)NCCCCCCNc1c2c(nc3ccccc13)CCCC2", "low value"),
]

Exercise: Sort into band: `CC(C)(C)OC(=O)N[C@@H](Cc1ccccc1)C(=O)NCCCCCNc1c2c(nc3ccccc13)CCCC2`
Solution: high value

Exercise: Sort into band: `N[C@@H](CCCCNC(=O)OCc1ccccc1)C(=O)NCCCCCNc1c2c(nc3ccccc13)CCCC2`
Solution: high value

Exercise: Sort into band: `CC(C)(C)OC(=O)N[C@@H](Cc1cn(C(=O)OC(C)(C)C)cn1)C(=O)NCCCNc1c2c(nc3ccccc13)CCCC2`
Solution: medium value

Exercise: Sort into band: `N[C@@H](Cc1c[nH]cn1)C(=O)NCCCCCNc1c2c(nc3ccccc13)CCCC2`
Solution: low value

Exercise: Sort into band: `CC(C)(C)OC(=O)N[C@@H](Cc1c[nH]c2ccccc12)C(=O)NCCCCCNc1c2c(nc3ccccc13)CCCC2`
Solution: medium value
